All values here come from PubChem BioAssay (NCI).

molecules and their reported TGI
- Test system: A549 NSCLC
- procedure_text: NCI tumour cell line growth inhibition, 48 h
observed_property: TGI

molecule	result
O=S(=O)(/N=C(\NO)Nc1ccc(Cl)cc1)c1ccccc1	> 100 µM
C(=Nc1ccc(-c2nc3ccccc3[nH]2)cc1)c1ccco1	> 100 µM
N#C/C(N)=C(\C#N)N=CNc1ccc(N)cc1	> 100 µM
COc1cc2c(cc1C1=NC(C)(C)CO1)OCO2	> 100 µM
COc1c2c(cc3c1C1(O)Cc4ccc5c(c4C[N+]1(C)CC3)OCO5)OCO2 (stereo unspecified)	> 100 µM
CC(C)(C)C1=CC(=C2C=Cc3ccccc3O2)C=C(C(C)(C)C)C1=O	26.2 µM
COc1ccc2[nH]c3c(C)cc([N+](=O)[O-])c(C)c3c2c1	75.3 µM
NCCCCCCNCc1cccc2ccccc12	> 100 µM
O=C(OC/C=C1C=C(OC(=O)c2ccccc2)/C(=N/N(C(=O)c2ccccc2)c2ccccc2)O\1)c1ccccc1	22.6 µM
COc1ccccc1NS(=O)(=O)c1ccc2oc(SC(C)C)nc2c1	88.6 µM
Cc1nc2sccn2c1C(=O)NC(=O)Nc1ccc(Cl)cc1	> 100 µM
